- Measurement Target: ΔF508-CFTR (Homo sapiens, UniProt P13569, DEL508-508)
- Construct: expressed in transfected cells; host or cells: Fischer rat thyroid (FRT) epithelial cells, stably transfected
- Sequence (P13569 with tags, fused parts or gaps DEL508-508): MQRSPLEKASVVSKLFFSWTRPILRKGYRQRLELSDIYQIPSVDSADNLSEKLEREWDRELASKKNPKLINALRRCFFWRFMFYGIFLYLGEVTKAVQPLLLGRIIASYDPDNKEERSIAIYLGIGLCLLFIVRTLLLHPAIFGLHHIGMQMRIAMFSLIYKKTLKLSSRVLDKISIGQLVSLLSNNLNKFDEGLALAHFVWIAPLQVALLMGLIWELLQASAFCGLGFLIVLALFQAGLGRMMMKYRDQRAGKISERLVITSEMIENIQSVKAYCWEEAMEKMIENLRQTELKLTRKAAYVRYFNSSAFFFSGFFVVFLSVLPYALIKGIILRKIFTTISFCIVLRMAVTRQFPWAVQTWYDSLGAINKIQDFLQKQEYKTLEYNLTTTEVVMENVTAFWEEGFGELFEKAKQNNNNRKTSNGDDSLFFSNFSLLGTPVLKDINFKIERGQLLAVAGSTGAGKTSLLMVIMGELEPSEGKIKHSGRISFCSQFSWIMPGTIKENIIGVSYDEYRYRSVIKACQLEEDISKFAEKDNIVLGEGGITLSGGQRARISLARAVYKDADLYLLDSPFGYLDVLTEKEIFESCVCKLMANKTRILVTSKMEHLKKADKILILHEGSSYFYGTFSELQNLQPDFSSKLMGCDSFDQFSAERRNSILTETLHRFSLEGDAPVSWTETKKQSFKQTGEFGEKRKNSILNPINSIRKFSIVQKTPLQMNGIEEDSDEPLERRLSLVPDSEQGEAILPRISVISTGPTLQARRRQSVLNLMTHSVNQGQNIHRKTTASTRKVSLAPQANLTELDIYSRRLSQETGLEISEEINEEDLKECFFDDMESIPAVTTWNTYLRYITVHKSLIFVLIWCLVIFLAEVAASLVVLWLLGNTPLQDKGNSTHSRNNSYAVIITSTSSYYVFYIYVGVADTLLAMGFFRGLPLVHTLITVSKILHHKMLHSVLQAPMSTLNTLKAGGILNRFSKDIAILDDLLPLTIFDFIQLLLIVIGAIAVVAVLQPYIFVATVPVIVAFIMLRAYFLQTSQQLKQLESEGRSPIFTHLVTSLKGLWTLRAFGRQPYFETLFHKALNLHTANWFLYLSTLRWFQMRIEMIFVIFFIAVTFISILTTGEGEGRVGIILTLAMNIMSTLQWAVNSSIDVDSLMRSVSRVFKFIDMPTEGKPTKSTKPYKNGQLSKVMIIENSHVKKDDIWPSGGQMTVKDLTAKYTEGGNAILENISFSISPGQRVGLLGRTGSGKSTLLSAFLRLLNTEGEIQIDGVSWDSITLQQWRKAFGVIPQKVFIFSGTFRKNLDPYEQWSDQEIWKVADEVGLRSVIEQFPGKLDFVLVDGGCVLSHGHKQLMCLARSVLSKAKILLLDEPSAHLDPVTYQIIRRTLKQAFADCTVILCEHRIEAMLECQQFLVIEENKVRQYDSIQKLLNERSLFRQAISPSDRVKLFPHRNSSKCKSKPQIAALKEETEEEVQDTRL
- Assay Notes: Corrector assay, YFP fluorescence plate reader iodide influx in ΔF508-CFTR expressing FRT cells
- Format: cell-based
- Experimental Conditions: Table IX, additional experiments; 18-24 h with compound at 37° C., forskolin 20 μM + genistein 50 μM
pEC50: −log10 of the molar value.
Below: a set of entries, each annotated with reported pEC50.
Measurement Type: pEC50

COc1cccc(C(=O)NCCNc2nc3cc(C)cc(C)c3cc2C#N)c1 [drawing 164]
5.66
COc1ccc(C(=O)NCCNc2nc3cc(C)cc(C)c3cc2C#N)cc1OC [drawing 185]
5.82
COc1cccc(OC)c1C(=O)NCCNc1nc2cc(C)cc(C)c2cc1C#N
5.43
Cc1cc(C)c2cc(C#N)c(NCCNC(=O)c3ccncc3)nc2c1 [drawing 169]
5.14
COc1ccccc1C(=O)NCCNc1nc2cc(C)cc(C)c2cc1C#N [drawing 165]
4.96
COc1ccc(C(=O)NCCCNc2nc3cc(C)cc(C)c3cc2C#N)cc1 [drawing 178]
5.37
Cc1cc(C)c2cc(C#N)c(NCCCNC(=O)c3cccnc3)nc2c1 [drawing 180]
5.52
Cc1cc(C)c2cc(C#N)c(NCCNC(=O)c3cccnc3)nc2c1 [drawing 168]
5.57
COc1ccc(C(=O)NCCNc2nc3cc(C)cc(C)c3cc2C#N)c(OC)c1
5.38
Cc1cc(C)c2cc(C#N)c(NCCCNC(=O)c3ccncc3)nc2c1 [drawing 181]
5.09
Cc1cc(C)c2cc(C#N)c(NCCNC(=O)c3cnccn3)nc2c1
5.17
COc1ccc(C(=O)NCCNc2nc3cc(C)cc(C)c3cc2C#N)nc1 [drawing 186]
5.57

###

Listing of recorded Corrector Vmax by entry.
- Measurement Target: ΔF508-CFTR (Homo sapiens, UniProt P13569, DEL508-508)
- Construct: expressed in transfected cells; host or cells: Fischer rat thyroid (FRT) epithelial cells, stably transfected
- Assay Notes: Corrector assay, YFP fluorescence plate reader iodide influx in ΔF508-CFTR expressing FRT cells
- Assay type: cell-based
- Experimental Conditions: Table IX, additional experiments; 18-24 h with compound at 37° C., forskolin 20 μM + genistein 50 μM
Measurement Type: Corrector Vmax (µM/s)

COc1ccc(C(=O)NCCNc2nc3cc(C)cc(C)c3cc2C#N)c(OC)c1
108
Cc1cc(C)c2cc(C#N)c(NCCNC(=O)c3cnccn3)nc2c1
174
COc1ccc(C(=O)NCCNc2nc3cc(C)cc(C)c3cc2C#N)cc1OC [drawing 185]
380
COc1cccc(C(=O)NCCCNc2nc3cc(C)cc(C)c3cc2C#N)c1 [drawing 177]
134
COc1ccccc1C(=O)NCCNc1nc2cc(C)cc(C)c2cc1C#N [drawing 165]
114
Cc1cc(C)c2cc(C#N)c(NCCCNC(=O)c3ccncc3)nc2c1 [drawing 181]
61

###

- Measurement Target: G551D-CFTR (Homo sapiens, UniProt P13569, G551D)
- Sequence (P13569 whole entry G551D): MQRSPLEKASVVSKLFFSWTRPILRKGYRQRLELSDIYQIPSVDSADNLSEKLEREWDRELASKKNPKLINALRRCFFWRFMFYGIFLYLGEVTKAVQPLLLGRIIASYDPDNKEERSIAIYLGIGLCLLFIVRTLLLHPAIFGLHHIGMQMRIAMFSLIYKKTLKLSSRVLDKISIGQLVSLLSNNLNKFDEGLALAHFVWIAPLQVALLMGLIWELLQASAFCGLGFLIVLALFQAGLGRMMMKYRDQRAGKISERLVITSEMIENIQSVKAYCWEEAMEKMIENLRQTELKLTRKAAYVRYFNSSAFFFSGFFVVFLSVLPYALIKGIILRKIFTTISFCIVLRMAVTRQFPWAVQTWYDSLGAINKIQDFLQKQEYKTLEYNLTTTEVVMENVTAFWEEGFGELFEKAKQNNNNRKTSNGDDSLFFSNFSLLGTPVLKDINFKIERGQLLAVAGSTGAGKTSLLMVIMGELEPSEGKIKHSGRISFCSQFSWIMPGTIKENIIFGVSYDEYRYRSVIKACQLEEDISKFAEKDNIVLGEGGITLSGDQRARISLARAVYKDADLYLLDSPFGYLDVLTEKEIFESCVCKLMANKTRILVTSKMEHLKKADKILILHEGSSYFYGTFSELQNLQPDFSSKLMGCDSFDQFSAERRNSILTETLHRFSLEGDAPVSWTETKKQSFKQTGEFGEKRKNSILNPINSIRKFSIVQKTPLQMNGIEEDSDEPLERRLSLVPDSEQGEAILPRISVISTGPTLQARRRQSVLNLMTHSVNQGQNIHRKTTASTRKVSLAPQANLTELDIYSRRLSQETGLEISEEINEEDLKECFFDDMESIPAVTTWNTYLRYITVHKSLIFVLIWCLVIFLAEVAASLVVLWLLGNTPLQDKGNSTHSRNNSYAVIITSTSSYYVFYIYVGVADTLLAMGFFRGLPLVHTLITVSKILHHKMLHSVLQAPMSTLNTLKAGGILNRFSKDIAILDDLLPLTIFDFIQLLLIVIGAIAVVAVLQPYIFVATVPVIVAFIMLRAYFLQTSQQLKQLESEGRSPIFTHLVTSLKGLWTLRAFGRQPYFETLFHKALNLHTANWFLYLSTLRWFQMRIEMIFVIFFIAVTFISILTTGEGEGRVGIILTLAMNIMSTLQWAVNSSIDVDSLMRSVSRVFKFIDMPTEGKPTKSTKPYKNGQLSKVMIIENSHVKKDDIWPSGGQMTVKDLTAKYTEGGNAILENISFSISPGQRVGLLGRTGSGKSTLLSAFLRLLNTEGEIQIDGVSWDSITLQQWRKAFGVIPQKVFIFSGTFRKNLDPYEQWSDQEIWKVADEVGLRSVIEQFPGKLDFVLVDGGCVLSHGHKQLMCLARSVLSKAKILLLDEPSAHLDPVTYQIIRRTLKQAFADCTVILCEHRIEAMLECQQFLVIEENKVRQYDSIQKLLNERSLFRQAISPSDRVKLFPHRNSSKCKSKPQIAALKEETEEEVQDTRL
- Assay Notes: Plate reader assay of G551D-CFTR chloride conductance in FRT cells
- Experimental Conditions: in the presence of 20 μM forskolin; read-out: Apparent EC50 for activation of G551-CFTR
Measurement Type: EC50

COc1cccc(C(=O)NCCNc2nc3cc(C)cc(C)c3cc2C#N)c1
~5 µM

###

- Measurement Target: ΔF508-CFTR (Homo sapiens, UniProt P13569, DEL508-508)
- Construct: expressed in transfected cells; host or cells: Fischer rat thyroid (FRT) epithelial cells, stably transfected
- Assay Notes: Potentiator assay, YFP fluorescence plate reader iodide influx in low-temperature rescued ΔF508-CFTR expressing FRT cells
- Format: cell-based
- Experimental Conditions: Table VIII; FRT cells 18-24 h at 27° C., forskolin 20 μM + test compound, I− influx
Use 200 µM/s as the dividing line for Potentiator Vmax, with the line itself on the rule met side and lower values as rule not met.

COc1ccccc1C(=O)N1CCN(c2nc3cc(C)cc(C)c3cc2C#N)CC1 [drawing 152]
rule not met
COc1ccc2nc(N3CCN(C(=O)c4ccccc4Cl)CC3)c(C#N)cc2c1
rule met
COc1ccc(C(=O)NCCNc2nc3ccc(C)cc3cc2C#N)cc1OC [drawing 138]
rule met
Cc1ccc2cc(C#N)c(N3CCCN(C(=O)c4cccs4)CC3)nc2c1
rule met
Cc1cc(C)c2cc(C#N)c(NCCCNC(=O)c3cccnc3)nc2c1 [drawing 162]
rule not met
COc1ccc(S(=O)(=O)N2CCN(c3nc4ccc(C)cc4cc3C#N)CC2)cc1 [drawing 140]
rule not met
COc1ccc(C(=O)N2CCN(c3nc4cc(C)cc(C)c4cc3C#N)CC2)cc1 [drawing 154]
rule met
Cc1cc(C)c2cc(C#N)c(NCCNC(=O)c3ccncc3)nc2c1 [drawing 151]
rule met

###

- Measurement Target: ΔF508-CFTR (Homo sapiens, UniProt P13569, DEL508-508)
- Construct: expressed in transfected cells; host or cells: Fischer rat thyroid (FRT) epithelial cells, stably transfected
- Assay Notes: Corrector assay, YFP fluorescence plate reader iodide influx in ΔF508-CFTR expressing FRT cells
- Format: cell-based
- Experimental Conditions: concentration-dependence in corrector and potentiator I− influx assays (FIG. 2, FIG. 7)
Measurement Type: corrector and potentiator activities, in words

Cc1cc(C)c2cc(C#N)c(NCCNC(=O)c3cccs3)nc2c1 [Compound 03]
dual activities
COc1ccc(S(=O)(=O)N2CCN(c3nc4ccc(C)cc4cc3C#N)CC2)cc1 [Compound 05]
dual activities

###

Here, each record is paired with measured EC50 data.
- Measurement Target: ΔF508-CFTR (Homo sapiens, UniProt P13569, DEL508-508)
- Construct: expressed in transfected cells; host or cells: Fischer rat thyroid (FRT) epithelial cells, stably transfected
- Assay Notes: Corrector assay, YFP fluorescence plate reader iodide influx in ΔF508-CFTR expressing FRT cells
- Assay type: cell-based
- Experimental Conditions: Table VIII; FRT cells, 18-24 h with compound at 37° C., forskolin 20 μM + genistein 50 μM, I− influx
- Method: Screening procedures. Screening of compounds for activity was carried out using a Beckman Coulter platform equipped with FLUOstar fluorescence plate readers (Optima; BMG Labtech) with dual syringe pumps and 500±10 nm excitation and 535±15 nm emission filters (Chroma Corp.). […] Initial I^− influx rate was computed by fitting the final 11.5 seconds of the data to an exponential for extrapolation of initial slope, which was normalized for background-subtracted initial fluorescence. […]
Measurement Type: EC50 (µM)

COc1ccc(C(=O)NCCNc2nc3ccc(C)cc3cc2C#N)cc1OC [drawing 138]
3.9
Cc1cc(C)c2cc(C#N)c(NCCNC(=O)c3cccnc3)nc2c1 [drawing 150]
15.2
Cc1cc(C)c2cc(C#N)c(NCCNC(=O)c3cccs3)nc2c1 [drawing 139]
14

###

- Measurement Target: ΔF508-CFTR (Homo sapiens, UniProt P13569, DEL508-508)
- Construct: expressed in transfected cells; host or cells: Fischer rat thyroid (FRT) epithelial cells, stably transfected
- Assay Notes: Corrector assay, YFP fluorescence plate reader iodide influx in ΔF508-CFTR expressing FRT cells
- Assay type: cell-based
- Experimental Conditions: Table VIII; FRT cells, 18-24 h with compound at 37° C., forskolin 20 μM + genistein 50 μM, I− influx
Measurement Type: Corrector Vmax (µM/s)

COc1ccc(C(=O)NCCNc2nc3c(C)cccc3cc2C#N)cc1OC [drawing 137]
223
COc1ccc(C(=O)NCCNc2nc3ccc(C)cc3cc2C#N)cc1OC [drawing 138]
281
COc1ccc(C(=O)NCCCNc2nc3cc(C)cc(C)c3cc2C#N)cc1 [drawing 160]
112
Cc1cc(C)c2cc(C#N)c(NCCNC(=O)c3cccs3)nc2c1 [drawing 139]
228

###

- Measurement Target: ΔF508-CFTR (Homo sapiens, UniProt P13569, DEL508-508)
- Construct: expressed in transfected cells; host or cells: Fischer rat thyroid (FRT) epithelial cells, stably transfected
- Assay Notes: Potentiator assay, YFP fluorescence plate reader iodide influx in low-temperature rescued ΔF508-CFTR expressing FRT cells
- Type: cell-based
- Experimental Conditions: Table VIII; FRT cells 18-24 h at 27° C., forskolin 20 μM + test compound, I− influx
pEC50: −log10 of the molar value.
Measurement Type: pEC50

COc1ccc(C(=O)N2CCN(c3nc4cc(C)cc(C)c4cc3C#N)CC2)cc1 [drawing 154]
5.89
Cc1cc(C)c2cc(C#N)c(NCCCNC(=O)c3cccnc3)nc2c1 [drawing 162]
4.80
COc1ccc(C(=O)NCCNc2nc3cc(C)cc(C)c3cc2C#N)cc1 [drawing 148]
5.39
Cc1ccc2cc(C#N)c(N3CCCN(C(=O)c4cccs4)CC3)nc2c1
4.89
CCOc1ccccc1NC(=S)NCCNc1nc2c(C)cccc2cc1C#N [drawing 144]
5.22
COc1ccc(C(=O)NCCNc2nc3ccc(C)cc3cc2C#N)cc1OC [drawing 138]
4.82
COc1ccccc1C(=O)NCCNc1nc2cc(C)cc(C)c2cc1C#N [drawing 147]
5.64
COc1cccc(C(=O)N2CCN(c3nc4cc(C)cc(C)c4cc3C#N)CC2)c1 [drawing 153]
5.92
COc1ccc(C(=O)NCCNc2nc3c(C)cccc3cc2C#N)cc1OC [drawing 137]
4.82
COc1ccc(C(=O)NCCCNc2nc3cc(C)cc(C)c3cc2C#N)cc1 [drawing 160]
5.30
COc1ccc(S(=O)(=O)N2CCN(c3nc4ccc(C)cc4cc3C#N)CC2)cc1 [drawing 140]
5.42
COc1cccc(C(=O)NCCCNc2nc3cc(C)cc(C)c3cc2C#N)c1 [drawing 159]
5.34
COc1ccc2nc(N3CCN(C(=O)c4ccccc4F)CC3)c(C#N)cc2c1
4.96
COc1ccc2nc(N3CCN(C(=O)c4ccccc4Cl)CC3)c(C#N)cc2c1
4.89
Cc1cc(C)c2cc(C#N)c(NCCNC(=O)c3cccs3)nc2c1 [drawing 139]
4.85
COc1ccc2nc(N3CCN(C(=O)c4ccccc4Br)CC3)c(C#N)cc2c1
5.30
Cc1cc(C)c2cc(C#N)c(NCCCNC(=O)c3ccccn3)nc2c1 [drawing 161]
5.21
Cc1cc(C)c2cc(C#N)c(NCCNC(=O)c3cccnc3)nc2c1 [drawing 150]
4.96

src = patent US9073863B2
